Target: Lanosterol 14-alpha demethylase (Candida albicans (strain SC5314 / ATCC MYA-2876) (Yeast), UniProt P10613)
Sequence (P10613 whole entry): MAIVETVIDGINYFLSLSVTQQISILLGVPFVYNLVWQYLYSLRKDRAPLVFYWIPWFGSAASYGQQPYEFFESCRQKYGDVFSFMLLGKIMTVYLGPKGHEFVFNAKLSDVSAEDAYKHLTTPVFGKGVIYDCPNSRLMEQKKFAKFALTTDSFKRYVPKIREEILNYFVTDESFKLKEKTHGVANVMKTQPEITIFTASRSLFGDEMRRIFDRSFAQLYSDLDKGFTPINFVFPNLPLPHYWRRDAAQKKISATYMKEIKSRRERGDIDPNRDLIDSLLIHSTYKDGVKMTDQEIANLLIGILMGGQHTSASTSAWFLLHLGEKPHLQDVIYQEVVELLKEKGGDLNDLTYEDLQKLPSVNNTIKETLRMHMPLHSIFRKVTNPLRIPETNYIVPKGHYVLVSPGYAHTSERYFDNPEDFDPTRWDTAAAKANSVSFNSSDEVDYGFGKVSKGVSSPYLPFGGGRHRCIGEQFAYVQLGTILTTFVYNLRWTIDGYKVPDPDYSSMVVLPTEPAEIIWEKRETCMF
Assay: Inhibition of CYP51 in Candida albicans assessed as inhibition of microbe growth incubated for 48 hrs by CLSI M27-A3 guideline based method
# maps each entry to its MIC50
MEASURED PARAMETER: MIC50 (µg/mL)

N#Cc1ccc(COc2ccc(C#Cc3ccc(C(F)(F)C(O)(Cn4cnnn4)c4ccc(F)cc4F)nc3)cc2)cc1F (stereo in doubt; 8a); 0.031
CNC(=O)c1ccc(COc2ccc(C#Cc3ccc(C(F)(F)C(O)(Cn4cnnn4)c4ccc(F)cc4F)nc3)cc2)cc1 (configuration not stated); 0.031
N#Cc1ccc(COc2ccc(C#Cc3ccc(C(F)(F)C(O)(Cn4cnnn4)c4ccc(F)cc4F)nc3)cc2)cc1F (single isomer, unassigned; (+)); 0.004
N#Cc1ccc(COc2ccc(C#Cc3ccc(C(F)(F)C(O)(Cn4cnnn4)c4cc(F)ccc4F)nc3)cc2)cc1 (configuration not stated); 0.016
OC(Cn1cnnn1)(c1ccc(F)cc1F)C(F)(F)c1ccc(C#Cc2ccc(OCc3ccc(OC(F)(F)F)cc3)cc2)cn1 (configuration not stated); 0.25
N#Cc1cccc(COc2ccc(C#Cc3ccc(C(F)(F)C(O)(Cn4cnnn4)c4ccc(F)cc4F)nc3)cc2)c1 (configuration not stated); 0.016

----------
Target: Steroid 17-alpha-hydroxylase/17,20 lyase (Homo sapiens)
Sequence (P05093 whole entry): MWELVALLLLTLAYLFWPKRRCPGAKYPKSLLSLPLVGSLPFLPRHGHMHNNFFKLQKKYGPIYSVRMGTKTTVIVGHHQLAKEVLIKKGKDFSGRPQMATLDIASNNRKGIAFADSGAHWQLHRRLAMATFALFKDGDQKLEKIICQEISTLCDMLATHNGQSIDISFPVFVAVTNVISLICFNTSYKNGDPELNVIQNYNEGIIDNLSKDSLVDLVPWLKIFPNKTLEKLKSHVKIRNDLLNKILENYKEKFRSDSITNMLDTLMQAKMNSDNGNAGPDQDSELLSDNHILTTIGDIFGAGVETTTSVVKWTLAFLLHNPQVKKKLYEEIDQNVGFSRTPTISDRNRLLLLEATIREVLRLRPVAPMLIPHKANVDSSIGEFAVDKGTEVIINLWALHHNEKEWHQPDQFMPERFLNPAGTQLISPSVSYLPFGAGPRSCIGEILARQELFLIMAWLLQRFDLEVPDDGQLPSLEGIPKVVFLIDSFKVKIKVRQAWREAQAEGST
Assay: Inhibition of CYP17 hydroxylase in human hepatocyte microsomes using pregnenolone substrate by HPLC/MS/MS method
Type: ADME
pIC50: −log10 of the molar value.
MEASURED PARAMETER: pIC50

N#Cc1ccc(COc2ccc(C#Cc3ccc(C(F)(F)C(O)(Cn4cnnn4)c4ccc(F)cc4F)nc3)cc2)cc1 (single isomer, unassigned; (+)); < 4.00
CC[C@@H]([C@H](C)O)n1ncn(-c2ccc(N3CCN(c4ccc(OC[C@@H]5CO[C@@](Cn6cncn6)(c6ccc(F)cc6F)C5)cc4)CC3)cc2)c1=O [POSACONAZOLE]; 5.74
OC(Cn1cncn1)(Cn1cncn1)c1ccc(F)cc1F [FLUCONAZOLE]; < 3.70
